Biological target: T1, recombinant human IGF-II (Insulin-like Growth Factor II) (human, UniProt P01344 25-91, biotinylated (Biotinyl-IGF-II, GroPep) where immobilised in SPR, site not stated; not biotinylated in ITC and as SPR analyte)
T1 construct: also called IGF2; IGF-2
T1 sequence (P01344 25-91 limits assumed): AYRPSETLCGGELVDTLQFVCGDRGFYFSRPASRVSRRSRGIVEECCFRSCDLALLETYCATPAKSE
Test: SPR, IGF-II immobilised, kinetic fit
Give measured kon for each item. Keep answers brief.
Numbers only here, please. The scale is M⁻¹ s⁻¹.

binder IGF2R domain 11 with threonine at position 1544 (E1544T) (receptor) NEHDDCQVTNPSTGHLFDLSSLSGRAGFTAAYSTKGLVYMSICGENENCPPGVGACFGQTRISVGKANKRLRYVDQVLQLVYKDGSPCPSKSGLSYKSVISFVCRPEAGPTNRPMLISLDKQTCTLFFSWHTPLACEQATHHHHHH , kon observed: 998000

binder IGF2R domain 11 with histidine at position 1544 (E1544H) (receptor) NEHDDCQVTNPSTGHLFDLSSLSGRAGFTAAYSHKGLVYMSICGENENCPPGVGACFGQTRISVGKANKRLRYVDQVLQLVYKDGSPCPSKSGLSYKSVISFVCRPEAGPTNRPMLISLDKQTCTLFFSWHTPLACEQATHHHHHH , kon observed: 1.8e+06

binder IGF2R domain 11 E1544A (amino acids 1511-1650, C-terminal His6 tag, from Pichia pastoris) (receptor) NEHDDCQVTNPSTGHLFDLSSLSGRAGFTAAYSAKGLVYMSICGENENCPPGVGACFGQTRISVGKANKRLRYVDQVLQLVYKDGSPCPSKSGLSYKSVISFVCRPEAGPTNRPMLISLDKQTCTLFFSWHTPLACEQATHHHHHH , kon observed: 1.23e+06

binder IGF2R domain 11 with isoleucine at position 1544 (E1544I) (receptor) NEHDDCQVTNPSTGHLFDLSSLSGRAGFTAAYSIKGLVYMSICGENENCPPGVGACFGQTRISVGKANKRLRYVDQVLQLVYKDGSPCPSKSGLSYKSVISFVCRPEAGPTNRPMLISLDKQTCTLFFSWHTPLACEQATHHHHHH , kon observed: 1.3e+06

binder IGF2R domain 11 with aspartate at position 1544 (E1544D) (receptor) NEHDDCQVTNPSTGHLFDLSSLSGRAGFTAAYSDKGLVYMSICGENENCPPGVGACFGQTRISVGKANKRLRYVDQVLQLVYKDGSPCPSKSGLSYKSVISFVCRPEAGPTNRPMLISLDKQTCTLFFSWHTPLACEQATHHHHHH , kon observed: 608000

binder IGF2R domain 11 with asparagine at position 1544 (E1544N) (receptor) NEHDDCQVTNPSTGHLFDLSSLSGRAGFTAAYSNKGLVYMSICGENENCPPGVGACFGQTRISVGKANKRLRYVDQVLQLVYKDGSPCPSKSGLSYKSVISFVCRPEAGPTNRPMLISLDKQTCTLFFSWHTPLACEQATHHHHHH , kon observed: 867000

binder IGF2R domain 11 with arginine at position 1544 (E1544R) (receptor) NEHDDCQVTNPSTGHLFDLSSLSGRAGFTAAYSRKGLVYMSICGENENCPPGVGACFGQTRISVGKANKRLRYVDQVLQLVYKDGSPCPSKSGLSYKSVISFVCRPEAGPTNRPMLISLDKQTCTLFFSWHTPLACEQATHHHHHH , kon observed: 2.29e+06

binder IGF2R domain 11 E1544K (amino acids 1511-1650, C-terminal His6 tag, from Pichia pastoris) (receptor, also called enhanced mutant) NEHDDCQVTNPSTGHLFDLSSLSGRAGFTAAYSKKGLVYMSICGENENCPPGVGACFGQTRISVGKANKRLRYVDQVLQLVYKDGSPCPSKSGLSYKSVISFVCRPEAGPTNRPMLISLDKQTCTLFFSWHTPLACEQATHHHHHH , kon observed: 2.02e+06

binder IGF2R domain 11 with methionine at position 1544 (E1544M) (receptor) NEHDDCQVTNPSTGHLFDLSSLSGRAGFTAAYSMKGLVYMSICGENENCPPGVGACFGQTRISVGKANKRLRYVDQVLQLVYKDGSPCPSKSGLSYKSVISFVCRPEAGPTNRPMLISLDKQTCTLFFSWHTPLACEQATHHHHHH , kon observed: 1.27e+06

binder IGF2R domain 11 with tryptophan at position 1544 (E1544W) (receptor) NEHDDCQVTNPSTGHLFDLSSLSGRAGFTAAYSWKGLVYMSICGENENCPPGVGACFGQTRISVGKANKRLRYVDQVLQLVYKDGSPCPSKSGLSYKSVISFVCRPEAGPTNRPMLISLDKQTCTLFFSWHTPLACEQATHHHHHH , kon observed: 936000
